Catalogue of molecules with associated IC50
# assayed system: recombinant human MAO-B (monoamine oxidase-B) (Homo sapiens, UniProt P27338)
# Construct: purchased Sigma-Aldrich
# Sequence (P27338 whole entry): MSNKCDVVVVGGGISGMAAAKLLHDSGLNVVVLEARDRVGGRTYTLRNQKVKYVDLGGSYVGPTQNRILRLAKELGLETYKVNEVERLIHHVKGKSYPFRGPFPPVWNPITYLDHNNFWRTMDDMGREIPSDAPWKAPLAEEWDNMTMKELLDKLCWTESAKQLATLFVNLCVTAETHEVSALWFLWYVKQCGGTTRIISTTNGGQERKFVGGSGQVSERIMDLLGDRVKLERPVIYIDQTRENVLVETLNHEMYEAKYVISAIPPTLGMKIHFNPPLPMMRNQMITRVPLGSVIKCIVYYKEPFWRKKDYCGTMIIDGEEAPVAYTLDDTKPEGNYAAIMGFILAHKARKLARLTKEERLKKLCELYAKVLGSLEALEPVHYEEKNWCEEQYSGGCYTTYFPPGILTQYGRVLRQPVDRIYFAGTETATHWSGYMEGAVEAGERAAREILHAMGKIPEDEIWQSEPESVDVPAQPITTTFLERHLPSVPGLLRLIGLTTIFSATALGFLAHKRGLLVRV
# test summary: Activity on recombinant human MAO-B, Amplex Red method, 1 mM benzylamine substrate
# Assay type: biochemical
# condition label: 1 mM benzylamine, read-out: Inhibitory Activity (IC50, nM) MAO-B
Structures can show the parent of a compound that is named as a salt.
// units = nM; emit number, no label

Some solved entries appear below for comparison.
NC/C(=C\F)Cn1ncn(-c2cccc(-c3ccc(OC(F)(F)F)cc3)c2)c1=O [Example 50, hydrochloride]
510
NC/C(=C\F)Cn1ncn(-c2cccc(-c3c[nH]c4ccccc34)c2)c1=O [Example 100, hydrochloride]
162
CC(=O)Nc1cc(-c2cc(C)c(-n3cnn(C/C(=C/F)CN)c3=O)cn2)ccn1
3220
Cc1cc(-n2cnn(C/C(=C\F)CN)c2=O)cnc1Br [Example 26, hydrochloride]
9.4
Cc1cc(-c2ccc3cn[nH]c3c2)ncc1-n1cnn(C/C(=C/F)CN)c1=O
133

Switching to the query record.
Using known records, supply IC50 for `Cc1cc(-c2cccc(-c3ncon3)c2)cnc1-n1cnn(C/C(=C/F)CN)c1=O` 3100

Where do these numbers come from? They come from patent US11492335B2.
